# System: OVCAR-4 ovarian
# Assay summary: NCI-60 one-dose screen, 48 h (100 = growth as untreated, 0 = no growth, -100 = all killed)
# Stated conditions: 10 µM unless noted
Compounds without any hit were thinned out: in the full panel of roughly 83,000, 20% have a hit. Calls of active or inactive are those of the source. The calls were made as follows: active = growth percent below 10; inactive = the rest.
# reported growth; entries follow

Here's what some known entries look like.
1) O=C(CNC(=O)c1cccc2ccccc12)Nc1ccccc1Oc1cccc(O)c1 | 59.1% [5 µM] (inactive)
2) COC(=O)c1c(NC(=O)CSc2nnnn2-c2ccc(OC)cc2)sc(C)c1C | 94.5% (inactive)
3) Oc1c(Cl)cc(Oc2cc(Cl)c(O)c(CN3CCOCC3)c2)cc1CN1CCOCC1 | 88.2% (inactive)
4) CC(=O)Nc1ccc(C(=O)COc2ccc(/C=C3\CCc4ccccc4C3=O)cc2)cc1 | 104% (inactive)
5) NS(=O)(=O)c1ccc(-n2ncc3c(NC4CCCCC4)ncnc32)cc1 | 97.9% (inactive)
6) NC(=O)c1cc(Cl)ccc1NC(=O)c1ccccc1-c1ccccc1 | 48.3% (inactive)
7) COc1ccc(C2=NN(C(C)=O)C(c3cccc(Nc4ccnc5cc(Cl)ccc45)c3)C2)cc1 (stereo not drawn) | 42% (inactive)

From here, focus on the item given below.
Give growth for this entry on OVCAR-4 ovarian: C[C@@H]1[C@H]2[C@H](C=C3[C@@H]4CC[C@H]5Cc6nc7c(nc6C[C@]5(C)[C@H]4C[C@@H](O)[C@@]32C)C[C@@H]2CC[C@H]3C4=C[C@@H]5O[C@@]6(CC[C@](C)(CO)O6)[C@@H](C)[C@@]5(O)[C@@]4(C)[C@H](O)C[C@@H]3[C@@]2(C)C7)O[C@]12CCC(C)(C)O2 55.5% (inactive)

###

# Tested on: NCI-H23 lung
# Assay summary: NCI-60 one-dose screen, 48 h
# Stated conditions: 10 µM unless noted
This is part of a sample that, as a whole, favours compounds with a hit. Of some 83,000 tested, about 20% had one in any assay. The source made the active and inactive calls. How the source made its calls: active means growth percent below 10; inactive means the rest.
Result category, one only: y (active), n (inactive)

Consider the worked cases shown below.
1) CC1CN(CC(O)c2ccc(Br)cc2)CCO1 (configuration not stated) | n
2) O=C(Nc1nc2c(C(F)(F)F)cccc2s1)c1cc(Cl)ccc1O | y
3) CC(=O)N1N=C(c2ccc(Nc3nc(NCCO)nc(NCCO)n3)cc2)CC1c1ccc(Cl)cc1 (configuration not stated) | n
4) CN(C)CCCN=c1cc2c(=O)n(CCCN(C)C)c(=O)c3c(NCCCN(C)C)cc4c(O)n(CCCN(C)C)c(=O)c1c4c3-2 | n
5) c1ccc2nc(Cn3c[n+](Cc4ccc5ccccc5n4)c4ccccc43)ccc2c1 | n
6) C1=C(Cc2ccccc2)n2cnc3ncnc(c32)S1 | n

Dear all, I need the recorded test outcome for C/C(=C\CCc1ccoc1)CC/C=C(\C)CCCN1CCOCC1 , thank you. n

So what was the verdict on Cc1ccc(-c2c3c(N)c4c(nc3nc3c2c(C)nn3-c2ccccc2)CCC4)cc1 in this test? n

Hello, I am checking results. What call was entered for Clc1ccc2[nH]cc(-c3cncn3CCc3ccccc3)c2c1 ? n

Hi, do you know how CC1C(C)N(C(=O)CCl)c2ccccc2N1C(=O)CCl (configuration not stated) came out in this test? y

Hey, what did the test say about CCSc1ncc(Br)c(Sc2nc(N)nc3nc[nH]c23)n1 ? n

###

# Tested on: ACHN renal
# Assay summary: NCI-60 one-dose screen, 48 h (100 = growth as untreated, 0 = no growth, -100 = all killed)
# Stated conditions: 10 µM unless noted
The panel holds about 83,000 compounds, 20% with a hit somewhere; the sample as a whole holds those more often.
Measured endpoint: growth (%)
Report only the number, with the unit % understood.

Examples from the recorded data:
1) C=C1CC[C@@H]2[C@](C)(COC(C)=O)[C@H](OC(C)=O)CC[C@@]2(C)[C@@H]1CC(NCc1ccccc1)C1=CCOC1=O (some centres undefined) | 46.4
2) COc1ccc(C(=O)COc2cccc(/C=C3\COc4ccc5ccccc5c4C3=O)c2)cc1 | 143
3) Cc1c2oc3c(C)ccc(C(=O)OC(C)C4NC(=O)C(C(C)C)N(C)C(=O)CN(C)C(=O)C5CCCN5C(=O)C(C(C)C)NC4=O)c3nc-2c(C(=O)OC(C)C2NC(=O)C(C(C)C)N(C)C(=O)CN(C)C(=O)C3CCCN3C(=O)C(C(C)C)NC2=O)c(N)c1=O (centres undefined) | 1.27

As a next step, examine the compound that follows.
Entry NC(=O)c1cc(Br)cc(Br)c1NS(=O)(=O)c1ccccc1 needs its growth filled in; supply it. 100

###

# Tested on: HCT-15 colon
# Assay summary: NCI-60 one-dose screen, 48 h (100 = growth as untreated, 0 = no growth, -100 = all killed)
# Stated conditions: 10 µM unless noted
This is part of a sample that, as a whole, favours compounds with a hit. Of some 83,000 tested, about 20% had one in any assay.
Measured endpoint: growth (%)
Just the number in %, nothing appended.

Reference set, count: 4
1. NS(=O)(=O)c1ccc(-n2ncc3c(NC4CCCCC4)ncnc32)cc1 | 86.4
2. COc1ccccc1-n1c(-c2ccc(O)cc2C)cn2c3c(=O)[nH]c(=O)n(C)c3nc12 | 98.4
3. Nc1nc(Nc2ccccc2SSc2ccccc2Nc2nc(N)nc(-c3ccc(I)cc3)n2)nc(-c2ccc(I)cc2)n1 | 36.4
4. C[C@]12CCC(=O)C=C1CCC1C2[C@@H](O)C[C@@]2(C)C1CC[C@]2(O)C(=O)COC(=O)CCC(=O)O (stereo not given in full) | 112

Shifting focus to the compound that follows.
Report growth, nothing else, for this compound: O=[N+]([O-])c1ccc(NS(=O)(=O)c2ccc(Cl)c(Cl)c2)cc1 88.7

###

# System: NCI-H460 lung
# Assay summary: NCI-60 one-dose screen, 48 h (100 = growth as untreated, 0 = no growth, -100 = all killed)
# Stated conditions: 10 µM unless noted
This is part of a sample that, as a whole, favours compounds with a hit. Of some 83,000 tested, about 20% had one in any assay.
Measured endpoint: growth (%)
Entry rule: numbers only, all in %.

Some molecules with known growth results, for comparison:
1) NC(=N\N=C/Cc1ccccc1)/C(N)=N\N=C\Cc1ccccc1 | 112
2) COc1cc(/C=C/C(=O)c2c(C)n([O-])c3ccccc3[n+]2=O)cc(OC)c1OC | 20.6

Supply measured growth of COc1ccc(CNC(=O)c2c(C)n([O-])c3cc(F)c(F)cc3[n+]2=O)cc1 in your reply. 97.2

Return the recorded growth value; entry: Nc1ccc(N=Nc2ccccc2)cc1[N+](=O)[O-] 100

Entry Cc1ccc2c(c1)C(=O)/C(=C\Nc1ccc(C(N)=O)cc1)C(O)O2 (stereo not given) needs its growth filled in; supply it. 111

###

# Tested on: NCI-H226 lung
# Assay summary: NCI-60 one-dose screen, 48 h (100 = growth as untreated, 0 = no growth, -100 = all killed)
# Stated conditions: 10 µM unless noted
This is part of a sample that, as a whole, favours compounds with a hit. Of some 83,000 tested, about 20% had one in any assay.
Measured endpoint: growth (%)
Answer with a number only, understood to be in %.

Solved entries:
1. O=c1sc2ncnc3ncn1c32 | 61.4
2. Cc1ccc(-c2c3c(N)nc(-c4ccncc4)nc3nc3c2c(C)nn3-c2ccccc2)cc1 | 44.9
3. Cc1cn(C(C=O)OC(C=O)CO)c(=O)[nH]c1=O (stereo unspecified) | 105
4. O=C1OC2(c3ccccc31)c1ccccc1-c1ccccc12 | 95.8
5. Nc1ccccc1-c1ccn[nH]1 | 86.8

Turning now to a further molecule:
Specify the recorded growth for COc1ccc(CNC(=O)c2c(C)n([O-])c3ccccc3[n+]2=O)cc1 , system: NCI-H226 lung. 102

###

# System: UACC-257 melanoma
# Assay summary: NCI-60 one-dose screen, 48 h (100 = growth as untreated, 0 = no growth, -100 = all killed)
# Stated conditions: 10 µM unless noted
# Description: Cells are grown in 96 well plates and exposed to the test compound for 48 hours. Compounds are tested at a single concentration, which is 10^-5 M for most compounds. The reported endpoint is percent growth (GI% or GIPRCNT), where numbers from 0 - 100% represent growth inhibition, and numbers from -100% - 0 represent cell death. For example, a value of 40 represents 60% growth inhibition. A value of 0 means no net growth occurred over the course of the experiment. […]
Compounds without any hit were thinned out: in the full panel of roughly 83,000, 20% have a hit. Active and inactive are the calls of the source. The calls were made as follows: active = growth percent below 10; inactive = the rest.
growth overview

// worked examples, growth included
1) Cc1cc(=O)oc2cc(OCCn3c(C)nn(-c4ccc(Cl)cc4)c3=O)ccc12 | 22.5% (inactive)
2) Cc1[nH]ccc2cc3nc4ccccc4c3cc12 | 39.9% (inactive)
3) CCOC(=O)OCC(=O)[C@@]1(O)CC[C@H]2[C@@H]3CCC4=CC(=O)CC[C@]4(C)[C@H]3[C@@H](O)C[C@@]21C | 93.4% (inactive)
4) COc1cnc2c(c1)C(=O)c1c-2n(CCCN2CCNCC2)c(=O)c2cc(F)ccc12 | 10.8% (inactive)
5) Nc1c(C(=O)Nc2cccc(Cl)c2)sc2nc3c(cc12)C(O)CCC3 (centres undefined) | 66.1% (inactive)
6) CCN(CC)CCNCC(=O)Oc1ccc(/C=C/C(=O)CC(=O)/C=C/c2ccc(OC(=O)CNCCN(CC)CC)c(OC)c2)cc1OC | 53.7% (inactive)
7) [N-]=[N+]=NCc1ncc(-c2ccc(C(F)(F)F)cc2)c(NC2CCCCCC2)n1 | 89.3% [50 µM] (inactive)
8) O=C(CNC(=O)c1cccc2ccccc12)Nc1ccccc1Oc1ccc(O)cc1 | 76.7% [5 µM] (inactive)

Entry Cc1ccc(S(=O)(=O)N2CCN(C(=O)CSc3nc4ccc(C)cc4[nH]3)CC2)cc1 needs its growth filled in; supply it. 63.4% (inactive)
